- Test system: human colon cancer HT29
- method: In vitro cell growth inhibition test, MTT assay
- Format: cell-based
- details: MTT assay 4 days after compound addition
experimentalReadout: IC50, HT29 (µg/mL)
Return type: number; implicit unit µg/mL.

These recorded examples may help you get a feel for the data.
- smilesStructure: "CCNC(=Nc1ncncc1CSc1nnc(-c2ccc(N)cc2)o1)NCCOC(C)=O"
  valueMeasured: 0.064
- smilesStructure: "Cc1ncc(CSc2nnc(-c3ccc(N)cc3)o2)c(N=C(NC(C)C)NC(C)C)n1"
  valueMeasured: 0.033
- smilesStructure: "CCNC(=Nc1ncncc1CSc1nnc(-c2ccc(CC)cc2)o1)NCC"
  valueMeasured: 0.045

The recorded IC50, HT29 for CCCNC(=Nc1nc(CC)ncc1CSc1nnc(-c2ccc(N)cc2)o1)NC is 0.02
